System: CCRIS mutagenicity, Ames/micronucleus/aberration tests
Assay: CCRIS mutagenicity studies
Conditions: Test System: E. COLI; Strain/Indicator: WP2 UVRA; Metabolic Activation: RAT, LIVER, S-9; Method: STANDARD PLATE
From the text: The CCRIS database contains chemical records with carcinogenicity, mutagenicity, tumor promotion, and tumor inhibition test results. It was developed by the National Cancer Institute (NCI). Data are derived from studies cited in primary journals, current awareness tools, NCI reports, and other sources. Test results have been reviewed by experts in carcinogenesis and mutagenesis. CCRIS provides historical information from the years 1985 - 2011. It is no longer updated. […]
Calls of active or inactive are those of the source. The rule behind the calls is not given here.
MEASURED_ENDPOINT: mutagenic call

| COMPOUND | MEASURED_ENDPOINT | RESULT |
| --- | --- | --- |
| CC/C(=C(/CC)c1ccc(O)cc1)c1ccc(O)cc1 | mutagenic call | inactive; negative |
| O=C(O)CN(CC(=O)O)CC(=O)O | mutagenic call | inactive; negative |
| Cc1ccccc1N=Nc1ccc(N(C)C)cc1 | mutagenic call | inactive; negative |
| N=C1C=CC(=C(c2ccc(N)cc2)c2ccc(N)cc2)C=C1 | mutagenic call | inactive; negative |

[Q] Fill in mutagenic call for record `COc1ccc(N)cc1N`
[A] inactive; negative

[Q] Fill in mutagenic call for record `CC(=O)Oc1ccccc1C(=O)O`
[A] inactive; negative

[Q] Fill in mutagenic call for record CCC1CO1 (stereo unspecified)
[A] inactive; negative

[Q] Fill in mutagenic call for record CCOCC(O)COc1ccc(NC(=O)CC[S+](C)C)cc1 (stereo unspecified)
[A] inactive; negative

[Q] Fill in mutagenic call for record `[N-]=[N+]=[N-]`
[A] inactive; negative

[Q] Fill in mutagenic call for record `OC[C@@H](O)[C@@H](O)CO`
[A] inactive; negative

[Q] Fill in mutagenic call for record `CN(C)C(=O)Nc1cccc(C(F)(F)F)c1`
[A] inactive; negative

###

system: CCRIS mutagenicity, Ames/micronucleus/aberration tests; assay: CCRIS mutagenicity studies; settings: Test System: AMES SALMONELLA TYPHIMURIUM; Strain/Indicator: TA100; Metabolic Activation: RAT, LIVER, S-9, AROCLOR 1254; Method: STANDARD PLATE
Activity calls are given as the source filed them. No rule for the calls is given here.
Your reply should match one of these outcome classes. YES for active, NO for inactive

| MOLECULE | CLASS |
| --- | --- |
| Nc1ccc2cc(S(=O)(=O)O)c(N=Nc3ccc(N=Nc4ccccc4)cc3OCCO)c(O)c2c1 | YES |
| Cl/C=C/C[N+]12CN3CN(CN(C3)C1)C2 | NO |
| O=C(/C=C/c1ccccc1)c1ccc(-c2ccccc2)cc1 | NO |

[Q] What outcome does the record of this test show for `NC(=O)NCC(=O)O` ?
[A] NO

[Q] What outcome does the record of this test show for `O=C(CCNNC(=O)c1ccncc1)NCc1ccccc1` ?
[A] YES

[Q] What outcome does the record of this test show for `C[C@@H]1CC[C@@]2(OC1)O[C@H]1C[C@H]3[C@@H]4CC=C5C[C@@H](O)CC[C@]5(C)[C@H]4CC[C@]3(C)[C@H]1[C@@H]2C` ?
[A] NO

[Q] What outcome does the record of this test show for `C[C@]12C=CC3=C4CCC(=O)C=C4CC[C@H]3[C@@H]1CC[C@@H]2O` ?
[A] NO

[Q] What outcome does the record of this test show for `O=c1[nH]cnc2[nH]ncc12` ?
[A] NO

###

tested on: CCRIS mutagenicity, Ames/micronucleus/aberration tests; experiment: CCRIS mutagenicity studies; conditions: Test System: AMES SALMONELLA TYPHIMURIUM; Strain/Indicator: TA98; Metabolic Activation: NONE; Method: STANDARD PLATE
The source made the active and inactive calls. How the calls were made is not given here.
Your reply should match one of these outcome classes. 1 (yes) (active), 0 (no) (inactive)

Some solved entries appear below for comparison.
| ENTRY_SMILES | CLASS |
| --- | --- |
| CC(=O)O[C@]1(C(C)=O)CC[C@H]2[C@@H]3C[C@H](C)C4=CC(=O)CC[C@]4(C)[C@H]3CC[C@@]21C | 0 (no) |
| CC(=O)[C@]1(O)Cc2c(O)c3c(c(O)c2[C@@H](O[C@H]2C[C@H](N)[C@H](O)[C@H](C)O2)C1)C(=O)c1c(O)cccc1C3=O | 1 (yes) |
| Oc1cccc2c1ccc1c3c4c(cccc4cc12)C=C3 | 0 (no) |

[Q] What outcome does the record of this test show for `O=[N+]([O-])c1ccc(-c2ccc([N+](=O)[O-])cc2)cc1` ?
[A] 1 (yes)

###

system: CCRIS mutagenicity, Ames/micronucleus/aberration tests; assay: CCRIS mutagenicity studies; conditions: Test System: AMES SALMONELLA TYPHIMURIUM; Strain/Indicator: TA97; Metabolic Activation: HAMSTER, LIVER, S-9, AROCLOR 1254 (10%); Method: PREINCUBATION
Activity calls are given as the source filed them. No rule for the calls is given here.
Your reply should match one of these outcome classes. active, inactive

| COMPOUND | TESTED_TARGET | CLASS |
| --- | --- | --- |
| CCC(C)(C)c1ccc(O)cc1 | CCRIS mutagenicity, Ames/micronucleus/aberration tests | inactive |
| Cc1ccc(CO)cc1 | CCRIS mutagenicity, Ames/micronucleus/aberration tests | inactive |
| C1N2CN3CN1CN(C2)C3 | CCRIS mutagenicity, Ames/micronucleus/aberration tests | inactive |
| CC(O)CBr (configuration not stated) | CCRIS mutagenicity, Ames/micronucleus/aberration tests | inactive |
| Oc1ccc(Nc2ccc3ccccc3c2)cc1 | CCRIS mutagenicity, Ames/micronucleus/aberration tests | inactive |
| CCCCCCCCCCCC(=O)N(CCO)CCO | CCRIS mutagenicity, Ames/micronucleus/aberration tests | inactive |
| Cc1ccc(C#N)cc1 | CCRIS mutagenicity, Ames/micronucleus/aberration tests | inactive |
| Cl/C=C\Cl | CCRIS mutagenicity, Ames/micronucleus/aberration tests | inactive |

[Q] What outcome does the record of this test show for `N#C/C=C/C#N` ?
[A] inactive

[Q] What outcome does the record of this test show for `COc1ccc(C(=O)c2ccccc2)c(O)c1` ?
[A] inactive

###

tested on: CCRIS mutagenicity, Ames/micronucleus/aberration tests; experiment: CCRIS mutagenicity studies; details: Test System: AMES SALMONELLA TYPHIMURIUM; Strain/Indicator: TA100; Metabolic Activation: MOUSE, LIVER, S-9, AROCLOR 1254; Method: STANDARD PLATE
Active and inactive are the calls of the source. The rule behind the calls is not given here.
Your reply should match one of these outcome classes. active, inactive

Some solved entries appear below for comparison.
| MOLECULE | CLASS |
| --- | --- |
| CC(C)(Br)C(=O)NCc1ccccc1 | inactive |
| CCOC(=O)CNC(=O)C(C)(C)Br | inactive |
| CC(=O)Oc1ccccc1C(=O)O | inactive |
| O=C(Nc1ccccc1)C1CO1 (stereo unspecified) | active |
| O=C(O)CN(CC(=O)O)CC(=O)O | inactive |

Shifting focus to the molecule that follows.
[Q] What outcome does the record of this test show for `CC(=O)Nc1ccc(O)cc1` ?
[A] inactive

###

tested on: CCRIS mutagenicity, Ames/micronucleus/aberration tests; assay: CCRIS mutagenicity studies; conditions: Test System: AMES SALMONELLA TYPHIMURIUM; Strain/Indicator: TA100; Metabolic Activation: RAT, LIVER, S-9, AROCLOR 1254; Method: STANDARD PLATE
Calls of active or inactive are those of the source. The rule behind the calls is not given here.
Your reply should match one of these outcome classes. active, inactive

Some solved entries appear below for comparison.
| COMPOUND | CLASS |
| --- | --- |
| c1ccc(C2CO2)cc1 (stereo not drawn) | inactive |
| Oc1ccc(Cl)cc1 | active |
| OCCBr | active |
| CC(NC(=O)COc1ccc(Cl)cc1Cl)C(=O)O (stereo not drawn) | inactive |
| CC(C)CON=O | active |

[Q] What outcome does the record of this test show for `Nc1c(O)cccc1[N+](=O)[O-]` ?
[A] inactive

[Q] What outcome does the record of this test show for O=C(CC(O)C(=O)OCCBr)OCCBr (stereo not drawn) ?
[A] active

[Q] What outcome does the record of this test show for `CCc1ccco1` ?
[A] inactive

###

tested on: CCRIS mutagenicity, Ames/micronucleus/aberration tests; assay: CCRIS mutagenicity studies; settings: Test System: E. COLI; Strain/Indicator: WP2 UVRA; Metabolic Activation: NONE; Method: FLUCTUATION TEST
Activity calls are given as the source filed them. No rule for the calls is given here.
MEASURED_ENDPOINT: mutagenic call

| ENTRY_SMILES | MEASURED_ENDPOINT | RESULT |
| --- | --- | --- |
| Nc1ccc(-c2ccccc2)cc1 | mutagenic call | inactive; negative |
| NC(=O)Oc1ccccc1 | mutagenic call | inactive; negative |
| ONc1ccccc1 | mutagenic call | inactive; negative |
